System: LNCaP cells
protocol_description: MTT growth assay, LNCaP
Format: cell-based
test_context: Homo sapiens, treatment 96 hours (methods) / 120 hours (Fig 1 legend), read-out: bergamottin concentration giving 50% growth reduction
metric_name: IC50 (µM)
Respond with the bare value in µM.

Record CC(C)=CCC/C(C)=C/COc1c2ccoc2cc2oc(=O)ccc12 , field IC50: 2.4

----------
Tested on: MDAPCa2b cells
protocol_description: MTT growth assay, MDAPCa2b
Assay type: cell-based
test_context: Homo sapiens, MDA-PCa-2b, treatment 96 hours (methods) / 120 hours (Fig 1 legend), read-out: bergamottin concentration giving 50% growth reduction
metric_name: IC50 (µM)
Respond with the bare value in µM.

Record CC(C)=CCC/C(C)=C/COc1c2ccoc2cc2oc(=O)ccc12 , field IC50: 4
